Test: Kinetic solubility in pH 2, 5 and 7 buffers at RT
Type: physicochemical
Conditions: 19 °C, aqueous buffer, thermodynamic from solid; pH 2 buffer, 24 hrs, RT; read-out: S: solubility
quantity-kind: solubility at 24 h (µg/mL)
Give just the numeric value; µg/mL need not be written.

### Prompt Which solubility at 24 h is reported for this compound? COc1cc(Nc2nccc(Nc3cccnc3-c3ccccn3)n2)ccc1N1CCN(C)CC1 [Freebase Form A]
### Response 3200

###

Assay: Kinetic solubility in pH 2, 5 and 7 buffers at RT
Format: physicochemical
Conditions: 19 °C, aqueous buffer, thermodynamic from solid; pH 5 buffer, 1 hr, RT; read-out: S: solubility
quantity-kind: solubility at 1 h (µg/mL)
// note: answer is a bare numeric in µg/mL

### Prompt Data request, read-out solubility at 1 h, for COc1cc(Nc2nccc(Nc3cccnc3-c3ccccn3)n2)ccc1N1CCN(C)CC1 [Freebase Form A]
### Response 7400

###

Experiment: Pharmacokinetic and tissue distribution study
Type: in vivo, CD-1 male mice
Settings: male, CD-1, mouse; mice, 20 mg/kg PO; liver
Experimental: An additional pharmacokinetic and tissue distribution study was conducted to comprehensively evaluate Compound 2 exposure in multiple mouse organs. CD-1 male mice were dosed 20 mg/kg, PO with Compound 2 formulated in 20% solutol and 80% saline. Plasma and organs were collected at nine (9) time points and the drug concentrations were determined by LC-MS/MS. […] The results confirmed exposure in clinically relevant target organs, including brain and liver (Table 7).
quantity-kind: Tmax (min)
The reply should be a number in min, with the unit left off.

### Prompt Can you look up the measured Tmax of COc1cc(Nc2nccc(Nc3cccnc3-c3ccccn3)n2)ccc1N1CCN(C)CC1 for me?
### Response 48

###

Experiment: Pharmacokinetic and tissue distribution study
Assay type: in vivo, CD-1 male mice
Settings: male, CD-1, mouse; mice, 20 mg/kg PO; plasma
quantity-kind: half-life
The reply should consist of the numeric value with the unit placed after it.

### Prompt Quick check: half-life of COc1cc(Nc2nccc(Nc3cccnc3-c3ccccn3)n2)ccc1N1CCN(C)CC1 ?
### Response 3.8 h

###

Test: Pharmacokinetics and relative bioavailability after a single oral dose (two liquid formulations, powder in capsule)
Type: in vivo, male Beagle dogs
Conditions: male, Beagle, dog, plasma, po, 2 mg/kg, Formulation #2 (Table 44), 2 mg/kg oral, male Beagle dogs, plasma, Mean; read-out: Cmax
quantity-kind: Cmax (ng/mL)
Quick reminder: number only, in ng/mL, skip the unit.

### Prompt Value lookup for Cmax; key = COc1cc(Nc2nccc(Nc3cccnc3-c3ccccn3)n2)ccc1N1CCN(C)CC1
### Response 11.6

###

Assay: Pharmacokinetics and relative bioavailability after a single oral dose (two liquid formulations, powder in capsule)
Type: in vivo, male Beagle dogs
Details: male, Beagle, dog, plasma, po, 5 mg/kg, Formulation #1 (Table 43), 5 mg/kg oral, male Beagle dogs, Mean
quantity-kind: Tmax (h)
The figure you give is taken to be in h; do not add the unit.

### Prompt Field request: Tmax | item: COc1cc(Nc2nccc(Nc3cccnc3-c3ccccn3)n2)ccc1N1CCN(C)CC1
### Response 3.7

###

Molecular target: ACVR1 G328V (Homo sapiens, UniProt Q04771, G328V)
Sequence (Q04771 21-509 G328V): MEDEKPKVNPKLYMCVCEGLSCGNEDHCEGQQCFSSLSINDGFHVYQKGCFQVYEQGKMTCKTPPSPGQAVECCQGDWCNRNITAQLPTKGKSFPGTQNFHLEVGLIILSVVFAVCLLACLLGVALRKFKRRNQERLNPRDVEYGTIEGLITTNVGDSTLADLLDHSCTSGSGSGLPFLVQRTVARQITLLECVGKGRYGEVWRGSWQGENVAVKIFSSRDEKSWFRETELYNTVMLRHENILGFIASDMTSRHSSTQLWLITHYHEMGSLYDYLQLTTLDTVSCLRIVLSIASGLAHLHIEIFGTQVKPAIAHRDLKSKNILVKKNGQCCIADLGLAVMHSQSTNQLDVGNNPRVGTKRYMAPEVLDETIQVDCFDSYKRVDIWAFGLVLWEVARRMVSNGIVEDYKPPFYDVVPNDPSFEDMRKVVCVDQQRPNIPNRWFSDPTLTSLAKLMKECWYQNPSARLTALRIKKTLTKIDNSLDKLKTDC
Test: ACVR1 kinase assay, casein substrate, 33P-ATP, filter binding
Details: 10 μM ATP
Protocol: In brief, casein-based substrates were prepared. The respective ACVR1 kinase was added to the substrate mixture and hot/cold 33P-ATP (10 μM) was added to initiate the reaction. The activity was then measured with a filter binding method. The IC50 values against the kinases are listed below in Table 3.
quantity-kind: pIC50
// pIC50 here means minus log10 of the molar concentration (mol/L)

### Prompt Item: COc1cc(Nc2nccc(Nc3cccnc3-c3ccccn3)n2)ccc1N1CCN(C)CC1 Test system: ACVR1 G328V (Homo sapiens, UniProt Q04771, G328V) Read-out: pIC50 Value: ?
### Response 7.86
